# Measured Target: hACC2 (Homo sapiens)
# Sequence (O00763 whole entry): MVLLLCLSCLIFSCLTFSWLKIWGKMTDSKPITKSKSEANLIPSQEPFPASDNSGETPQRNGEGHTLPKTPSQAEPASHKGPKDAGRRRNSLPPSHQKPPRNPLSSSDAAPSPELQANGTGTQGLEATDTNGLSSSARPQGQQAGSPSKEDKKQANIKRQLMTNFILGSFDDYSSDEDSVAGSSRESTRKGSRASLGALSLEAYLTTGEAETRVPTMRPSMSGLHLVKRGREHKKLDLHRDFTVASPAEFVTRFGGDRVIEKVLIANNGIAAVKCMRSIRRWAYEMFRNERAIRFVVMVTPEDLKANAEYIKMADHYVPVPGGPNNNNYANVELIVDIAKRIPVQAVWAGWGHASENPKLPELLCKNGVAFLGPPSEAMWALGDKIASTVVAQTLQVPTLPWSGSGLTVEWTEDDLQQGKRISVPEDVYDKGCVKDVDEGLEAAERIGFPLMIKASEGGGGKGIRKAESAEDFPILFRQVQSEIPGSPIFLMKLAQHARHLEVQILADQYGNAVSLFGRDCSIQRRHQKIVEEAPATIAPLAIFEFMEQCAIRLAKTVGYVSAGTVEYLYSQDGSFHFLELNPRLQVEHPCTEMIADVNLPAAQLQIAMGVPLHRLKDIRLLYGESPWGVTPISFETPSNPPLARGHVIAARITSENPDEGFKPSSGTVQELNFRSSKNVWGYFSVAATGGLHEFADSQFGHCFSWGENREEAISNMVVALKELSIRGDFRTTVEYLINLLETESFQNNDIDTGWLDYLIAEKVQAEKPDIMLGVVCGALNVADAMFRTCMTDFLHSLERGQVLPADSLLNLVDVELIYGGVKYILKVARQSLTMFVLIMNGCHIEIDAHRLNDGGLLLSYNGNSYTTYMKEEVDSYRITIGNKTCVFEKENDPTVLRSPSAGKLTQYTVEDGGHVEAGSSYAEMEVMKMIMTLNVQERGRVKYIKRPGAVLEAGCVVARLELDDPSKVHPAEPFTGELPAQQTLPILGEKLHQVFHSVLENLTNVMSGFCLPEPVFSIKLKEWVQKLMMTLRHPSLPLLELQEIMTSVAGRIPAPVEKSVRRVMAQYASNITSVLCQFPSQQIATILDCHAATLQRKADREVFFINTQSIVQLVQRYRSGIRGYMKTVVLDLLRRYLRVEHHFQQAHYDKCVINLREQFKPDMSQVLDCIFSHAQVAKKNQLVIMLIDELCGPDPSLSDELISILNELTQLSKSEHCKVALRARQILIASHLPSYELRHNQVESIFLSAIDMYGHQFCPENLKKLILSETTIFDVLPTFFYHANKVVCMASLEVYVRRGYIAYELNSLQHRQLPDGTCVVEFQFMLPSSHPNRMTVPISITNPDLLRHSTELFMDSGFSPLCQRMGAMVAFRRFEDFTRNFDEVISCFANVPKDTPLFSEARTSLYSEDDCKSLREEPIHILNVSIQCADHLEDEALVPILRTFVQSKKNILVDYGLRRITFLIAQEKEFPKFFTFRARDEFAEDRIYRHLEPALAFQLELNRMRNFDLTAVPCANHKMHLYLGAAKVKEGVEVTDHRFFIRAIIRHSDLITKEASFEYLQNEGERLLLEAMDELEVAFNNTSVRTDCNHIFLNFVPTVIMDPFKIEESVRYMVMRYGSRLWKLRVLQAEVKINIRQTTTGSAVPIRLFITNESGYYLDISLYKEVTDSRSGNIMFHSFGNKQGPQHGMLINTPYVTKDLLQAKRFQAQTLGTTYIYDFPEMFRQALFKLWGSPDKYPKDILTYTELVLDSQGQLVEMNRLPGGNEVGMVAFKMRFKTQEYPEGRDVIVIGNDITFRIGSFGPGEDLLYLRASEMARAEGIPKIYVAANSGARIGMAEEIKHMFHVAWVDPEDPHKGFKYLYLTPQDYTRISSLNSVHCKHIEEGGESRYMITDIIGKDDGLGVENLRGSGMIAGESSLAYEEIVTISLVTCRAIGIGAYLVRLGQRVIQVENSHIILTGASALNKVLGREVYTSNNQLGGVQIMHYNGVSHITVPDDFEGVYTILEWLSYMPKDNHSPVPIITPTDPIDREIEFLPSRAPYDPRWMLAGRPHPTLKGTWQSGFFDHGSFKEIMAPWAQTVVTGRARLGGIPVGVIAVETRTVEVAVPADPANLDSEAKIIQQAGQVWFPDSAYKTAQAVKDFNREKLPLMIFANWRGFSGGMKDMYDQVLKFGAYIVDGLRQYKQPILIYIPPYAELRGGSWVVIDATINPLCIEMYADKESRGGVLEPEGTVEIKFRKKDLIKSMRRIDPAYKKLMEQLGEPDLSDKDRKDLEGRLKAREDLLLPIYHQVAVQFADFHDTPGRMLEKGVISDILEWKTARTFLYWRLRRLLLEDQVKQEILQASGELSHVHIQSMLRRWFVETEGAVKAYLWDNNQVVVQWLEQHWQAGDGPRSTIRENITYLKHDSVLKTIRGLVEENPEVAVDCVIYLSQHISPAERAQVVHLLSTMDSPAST
# Assay Method Text: In vitro ACC2 inhibition assay (ADP-Glo), human ACC2
# Type: biochemical
# Recorded Conditions: Table 2a
pIC50: −log10 of the molar value.
# key: entry, value: pIC50

Smiles Code | pIC50
CCOC(=O)c1sc2c(c1C)c(=O)n(C(C)(C)C(=O)N1CCOCC1)c(=O)n2C[C@H](OC(C)C)c1ccccc1OC | 7.40 to 8.00
CCOC(=O)c1sc2c(c1C)c(=O)n(C(C)(C)C(=O)NC(C)C)c(=O)n2C[C@H](OC1CCOCC1)c1ccccc1OC | 7.40 to 8.00
CCOC(=O)c1sc2c(c1C)c(=O)n(C(C)(C)C(=O)N1CCCC1)c(=O)n2C[C@H](OCCC#N)c1cc(F)ccc1OC | 8.00 to 8.52
CCOC(=O)c1sc2c(c1C)c(=O)n(C(C)(C)C(=O)N1CCCC1)c(=O)n2C[C@H](OC(C)C)c1ccccc1OC | 7.40 to 8.00
CCOC(=O)c1sc2c(c1C)c(=O)n(C(C)(C)C(=O)N1CCCC1)c(=O)n2C[C@H](OCCOC)c1cc(F)ccc1OC | 7.40 to 8.00
CCOC(=O)c1sc2c(c1C)c(=O)n(C(C)(C)C(=O)NC(C)C)c(=O)n2C[C@H](OC(C)C)c1ccccc1OC | 7.40 to 8.00
CCOC(=O)c1sc2c(c1C)c(=O)n(C(C)(C)C(=O)NC(C)C)c(=O)n2C[C@H](OCCOC)c1cc(F)ccc1OC | 7.40 to 8.00
CCOC(=O)c1sc2c(c1C)c(=O)n(C(C)(C)C(N)=O)c(=O)n2C[C@H](OCCO)c1cc(F)ccc1OC | 7.40 to 8.00
CCOC(=O)c1sc2c(c1C)c(=O)n(C(C)(C)C(N)=O)c(=O)n2C[C@H](OCCC#N)c1cc(F)ccc1OC | 8.00 to 8.52
CCOC(=O)c1sc2c(c1C)c(=O)n(C(C)(C)C(N)=O)c(=O)n2C[C@H](OCCOC)c1cc(F)ccc1OC | ≤ 7.40
CCNC(=O)C(C)(C)n1c(=O)c2c(C)c(C(=O)OCC)sc2n(C[C@H](OC2CCOCC2)c2ccccc2OC)c1=O | 8.00 to 8.52
CCOC(=O)c1sc2c(c1C)c(=O)n(C(C)(C)C(=O)NC(C)C)c(=O)n2C[C@H](OCCC#N)c1cc(F)ccc1OC | 7.40 to 8.00
CCOC(=O)c1sc2c(c1C)c(=O)n(C(C)(C)C(=O)N1CCCC1)c(=O)n2C[C@H](OCCO)c1cc(F)ccc1OC | 8.00 to 8.52

====

# Measured Target: hACC2 (Homo sapiens)
# Assay Method Text: In vitro ACC2 inhibition assay (ADP-Glo), human ACC2
# Type: biochemical
# Recorded Conditions: Table 2b (additional results)
pIC50: −log10 of the molar value.
Known pIC50 of a selection of compounds
Measured Attribute: pIC50

Smiles Code | Measured Attribute | Experimental Result
CCOC(=O)c1sc2c(c1C)c(=O)n(C(C)(C)C(=O)NC(C)C)c(=O)n2C[C@H](OC[C@H](C)C#N)c1cc(F)ccc1OC | pIC50 | 7.40 to 8.00
CCOC(=O)c1sc2c(c1C)c(=O)n(C(C)(C)C(=O)N1CCCC1)c(=O)n2C[C@H](OC(C)C)c1ccccc1OC | pIC50 | 7.40 to 8.00
CCOC(=O)c1sc2c(c1C)c(=O)n(C(C)(C)C(=O)NC(C)C)c(=O)n2C[C@H](OCCC#N)c1ccccc1OC | pIC50 | 8.00 to 8.52
CCOC(=O)c1sc2c(c1C)c(=O)n([C@@H](C)C(=O)NC(C)C)c(=O)n2C[C@H](O)c1cc(F)ccc1OC | pIC50 | ≤ 7.40
CCOC(=O)c1sc2c(c1C)c(=O)n(C(C)(C)C(=O)N1CCOCC1)c(=O)n2C[C@H](OC(C)C)c1ccccc1OC | pIC50 | 7.40 to 8.00

====

Reported IC90 by item:
# Tested on: Collectotrichum graminicola (Cg)
# Assay Method Text: Growth inhibition assay of fungal pathogens
# Assay type: cell-based
# Recorded Conditions: 48 h, Table 4b, read-out: Concentration at 90% Inhibition Cg
Measured Attribute: IC90 (µg/mL)

Smiles Code | Measured Target | Measured Attribute | Units Text | Value Operator | Experimental Result
CCOC(=O)c1sc2c(c1C)c(=O)n([C@H](C)C(=O)N(C)C(C)C)c(=O)n2C[C@H](OCCC#N)c1cc(F)ccc1OC | Collectotrichum graminicola (Cg) | IC90 | µg/mL | = | 2
CCOC(=O)c1sc2c(c1C)c(=O)n(C(C)(C)C(=O)N1CCCC1)c(=O)n2C[C@H](OC(C)C)c1ccccc1OC | Collectotrichum graminicola (Cg) | IC90 | µg/mL | = | 0.4
CCOC(=O)c1sc2c(c1C)c(=O)n(C(C)(C)C(=O)NC(C)C)c(=O)n2CCc1cc(F)ccc1OC | Collectotrichum graminicola (Cg) | IC90 | µg/mL | = | 10
CCOC(=O)c1sc2c(c1C)c(=O)n(C(C)(C)C(N)=O)c(=O)n2C[C@H](OCCC#N)c1cc(F)ccc1OC | Collectotrichum graminicola (Cg) | IC90 | µg/mL | ≥ | 50
CCOC(=O)c1sc2c(c1C)c(=O)n(C(C)(C)C(=O)N1CCCC1)c(=O)n2C[C@H](OCCO)c1cc(F)ccc1OC | Collectotrichum graminicola (Cg) | IC90 | µg/mL | = | 0.4
CCNC(=O)[C@H](C)n1c(=O)c2c(C)c(C(=O)OCC)sc2n(C[C@H](OCCC#N)c2cc(F)ccc2OC)c1=O | Collectotrichum graminicola (Cg) | IC90 | µg/mL | = | 2
CCNC(=O)C(C)(C)n1c(=O)c2c(C)c(C(=O)OCC)sc2n(C[C@H](OCCC#N)c2ccccc2OC)c1=O | Collectotrichum graminicola (Cg) | IC90 | µg/mL | = | 2
CCNC(=O)[C@@H](C)n1c(=O)c2c(C)c(C(=O)OCC)sc2n(C[C@H](OCCC#N)c2cc(F)ccc2OC)c1=O | Collectotrichum graminicola (Cg) | IC90 | µg/mL | = | 10
CCNC(=O)C(C)(C)n1c(=O)c2c(C)c(C(=O)OCC)sc2n(C[C@H](OCCC#N)c2cc(F)ccc2OC)c1=O | Collectotrichum graminicola (Cg) | IC90 | µg/mL | = | 0.4
CCNC(=O)C(C)(C)n1c(=O)c2c(C)c(C(=O)OCC)sc2n(C[C@H](OC(C)C)c2ccccc2OC)c1=O | Collectotrichum graminicola (Cg) | IC90 | µg/mL | = | 10
CCOC(=O)c1sc2c(c1C)c(=O)n(C(C)(C)C(=O)N1CCCC1)c(=O)n2C[C@H](OCCC#N)c1cc(F)ccc1OC | Collectotrichum graminicola (Cg) | IC90 | µg/mL | = | 2
CCOC(=O)c1sc2c(c1C)c(=O)n([C@@H](C)C(=O)NC(C)C)c(=O)n2C[C@H](O)c1cc(F)ccc1OC | Collectotrichum graminicola (Cg) | IC90 | µg/mL | ≥ | 50
CCNC(=O)C(C)(C)n1c(=O)c2c(C)c(C(=O)OCC)sc2n(C[C@H](O)c2cc(F)ccc2OC)c1=O | Collectotrichum graminicola (Cg) | IC90 | µg/mL | ≥ | 50
CCOC(=O)c1sc2c(c1C)c(=O)n(C(C)(C)C(=O)NC(C)C)c(=O)n2C[C@H](OC(C)C)c1ccccc1OC | Collectotrichum graminicola (Cg) | IC90 | µg/mL | = | 2
CCOC(=O)c1sc2c(c1C)c(=O)n([C@H](C)C(=O)N1CCCC1)c(=O)n2C[C@H](OCCC#N)c1cc(F)ccc1OC | Collectotrichum graminicola (Cg) | IC90 | µg/mL | = | 2
CCOC(=O)c1sc2c(c1C)c(=O)n(C(C)(C)C(=O)NC(C)C)c(=O)n2C[C@H](OC[C@@H](C)C#N)c1cc(F)ccc1OC | Collectotrichum graminicola (Cg) | IC90 | µg/mL | = | 0.08
CCOC(=O)c1sc2c(c1C)c(=O)n([C@@H](C)C(=O)NC(C)C)c(=O)n2C[C@H](OCCC#N)c1cc(F)ccc1OC | Collectotrichum graminicola (Cg) | IC90 | µg/mL | = | 10
CCOC(=O)c1sc2c(c1C)c(=O)n(C(C)(C)C(=O)NC(C)C)c(=O)n2C[C@H](OCC(C)(C)C#N)c1cc(F)ccc1OC | Collectotrichum graminicola (Cg) | IC90 | µg/mL | = | 0.4
CCOC(=O)c1sc2c(c1C)c(=O)n([C@H](C)C(=O)NC(C)C)c(=O)n2C[C@H](O)c1cc(F)ccc1OC | Collectotrichum graminicola (Cg) | IC90 | µg/mL | = | 10
CCOC(=O)c1sc2c(c1C)c(=O)n(C(C)(C)C(=O)NC(C)C)c(=O)n2CCc1cc(F)ccc1OCCC#N | Collectotrichum graminicola (Cg) | IC90 | µg/mL | ≥ | 50
CCOC(=O)c1sc2c(c1C)c(=O)n(C(C)(C)C(=O)NC(C)C)c(=O)n2C[C@H](OCCOC)c1cc(F)ccc1OC | Collectotrichum graminicola (Cg) | IC90 | µg/mL | = | 2
CCOC(=O)c1sc2c(c1C)c(=O)n(C(C)(C)C(=O)NC(C)C)c(=O)n2C[C@H](OC[C@H](C)C#N)c1cc(F)ccc1OC | Collectotrichum graminicola (Cg) | IC90 | µg/mL | = | 0.08
CCOC(=O)c1sc2c(c1C)c(=O)n([C@@H](C)C(=O)N(C)C(C)C)c(=O)n2C[C@H](OCCC#N)c1cc(F)ccc1OC | Collectotrichum graminicola (Cg) | IC90 | µg/mL | = | 10
CCOC(=O)c1sc2c(c1C)c(=O)n(C(C)(C)C(=O)NC(C)C)c(=O)n2C[C@H](OCCO)c1cc(F)ccc1OC | Collectotrichum graminicola (Cg) | IC90 | µg/mL | = | 0.4
CCOC(=O)c1sc2c(c1C)c(=O)n([C@H](C)C(=O)NC(C)C)c(=O)n2C[C@H](OCCC#N)c1cc(F)ccc1OC | Collectotrichum graminicola (Cg) | IC90 | µg/mL | = | 0.4
CCOC(=O)c1sc2c(c1C)c(=O)n(C(C)(C)C(=O)NC(C)C)c(=O)n2C[C@H](O)c1cc(F)ccc1OC | Collectotrichum graminicola (Cg) | IC90 | µg/mL | = | 2
